Measured values drawn from patent US20170071902A1 for this set.

- Target entity: NOX (NADPH oxidase) (Homo sapiens, UniProt P04839)
- Construct: endogenous in cells; host or cells: HL-60 cells differentiated with 1% DMSO, used as a sonicated homogenate supernatant (A1) or as viable cells (A2)
- Sequence (P04839 2-570 limits assumed): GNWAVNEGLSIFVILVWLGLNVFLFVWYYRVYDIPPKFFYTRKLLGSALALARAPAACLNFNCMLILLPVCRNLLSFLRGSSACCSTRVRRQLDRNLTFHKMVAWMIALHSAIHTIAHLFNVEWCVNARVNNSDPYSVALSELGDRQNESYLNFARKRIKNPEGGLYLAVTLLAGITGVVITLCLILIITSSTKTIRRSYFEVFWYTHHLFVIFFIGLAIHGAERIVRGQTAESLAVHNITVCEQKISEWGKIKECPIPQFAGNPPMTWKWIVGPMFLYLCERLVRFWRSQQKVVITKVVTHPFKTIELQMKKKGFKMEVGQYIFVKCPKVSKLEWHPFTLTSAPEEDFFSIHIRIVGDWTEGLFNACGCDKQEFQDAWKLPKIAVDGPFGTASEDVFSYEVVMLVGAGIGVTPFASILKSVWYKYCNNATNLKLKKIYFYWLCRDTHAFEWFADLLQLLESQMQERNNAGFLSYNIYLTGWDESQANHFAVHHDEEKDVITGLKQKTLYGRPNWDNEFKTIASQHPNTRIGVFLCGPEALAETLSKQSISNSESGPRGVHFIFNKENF
- Sequence (P13498 2-195 partner limits assumed): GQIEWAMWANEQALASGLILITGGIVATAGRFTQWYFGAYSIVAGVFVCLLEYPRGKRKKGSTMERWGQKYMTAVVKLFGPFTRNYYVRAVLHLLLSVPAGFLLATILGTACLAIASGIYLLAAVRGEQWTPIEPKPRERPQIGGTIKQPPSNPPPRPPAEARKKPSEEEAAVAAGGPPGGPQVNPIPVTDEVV
- Assay explanation: NOX activity measurement in a cell-free system using a homogenate of differentiated HL-60 cells (NADPH consumption, fluorometry)
- Assay type: biochemical
- Condition: Example 5; cell-free system using a homogenate; compounds extracted and fractionated from black ginger; read-out: NOX inhibition IC50

>  <Compound>
COc1cc(OC)c2c(=O)cc(-c3ccccc3)oc2c1

>  <IC50>
53 µM

$$$$
>  <Compound>
COc1cc(O)c2c(=O)c(OC)c(-c3ccc(OC)c(OC)c3)oc2c1 [KPEt-41, 5-hydroxy-3,7,3′,4′-Tetramethoxyflavone]

>  <IC50>
> 100 µM

$$$$
>  <Compound>
COc1cc(O)c2c(=O)c(OC)c(-c3ccccc3)oc2c1 [KPEt-431, 5-hydroxy-3,7-Dimethoxyflavone]

>  <IC50>
> 100 µM

$$$$
>  <Compound>
COc1cc(O)c2c(=O)cc(-c3ccccc3)oc2c1 [KPEt-421, 5-hydroxy-7-Methoxyflavone]

>  <IC50>
> 100 µM

$$$$
>  <Compound>
COc1cc(OC)c2c(=O)cc(-c3ccc(OC)c(OC)c3)oc2c1

>  <IC50>
38 µM

$$$$
>  <Compound>
COc1ccc(-c2oc3cc(OC)cc(OC)c3c(=O)c2OC)cc1

>  <IC50>
> 100 µM

$$$$
>  <Compound>
COc1cc(OC)c2c(=O)c(OC)c(-c3ccc(OC)c(OC)c3)oc2c1

>  <IC50>
70 µM

$$$$
>  <Compound>
COc1ccc(-c2cc(=O)c3c(O)cc(OC)cc3o2)cc1 [KPEt-422, 5-hydroxy-7,4′-Dimethoxyflavone]

>  <IC50>
> 100 µM

$$$$
>  <Compound>
COc1cc(OC)c2c(=O)c(OC)c(-c3ccccc3)oc2c1

>  <IC50>
> 100 µM

$$$$
>  <Compound>
COc1ccc(-c2oc3cc(OC)cc(O)c3c(=O)c2OC)cc1 [KPEt-432, 5-hydroxy-3,7,4′-Trimethoxyflavone]

>  <IC50>
> 100 µM

$$$$
>  <Compound>
COc1ccc(-c2cc(=O)c3c(OC)cc(OC)cc3o2)cc1

>  <IC50>
53 µM

$$$$
